Property: TGI; scope: individual compounds
# System: LOX IMVI melanoma
# PROCEDURE_SUMMARY: NCI tumour cell line growth inhibition, 48 h
MEASURED_ENDPOINT: TGI

[[record]]
compound = "COc1cc(NC(=O)NCc2ccco2)ccc1-c1ccc(NC(=O)NCc2ccco2)cc1OC"
tested_target = "LOX IMVI melanoma"
value = "> 100 µM"

[[record]]
compound = "CC(NC(=O)C(=O)N/N=C1\\C[C@@H](c2ccccc2)Nc2ccccc21)c1ccccc1 (stereo not given in full)"
tested_target = "LOX IMVI melanoma"
value = "> 100 µM"

[[record]]
compound = "COc1cc2c(cc1OC)[C@@](C)(C(O)C(O)C(C)(C)O)NCC2 (stereo not given in full)"
tested_target = "LOX IMVI melanoma"
value = "> 100 µM"

[[record]]
compound = "Cc1ccc2c(C(=O)c3c(C)n(CCN4CCOCC4)c4ccccc34)cccc2c1"
tested_target = "LOX IMVI melanoma"
value = "42.1 µM"

[[record]]
compound = "NC(CC(O)(c1ccccc1)c1ccccc1)c1ccccc1S (stereo not given)"
tested_target = "LOX IMVI melanoma"
value = "30.5 µM"

[[record]]
compound = "CC(=O)/C=C1\\CC(=O)Nc2ccccc2N1"
tested_target = "LOX IMVI melanoma"
value = "> 100 µM"

[[record]]
compound = "COc1ccc(Cn2cc3c(c2-c2cc(OC)c(OC)c(OC)c2)CCc2cnoc2-3)cc1N"
tested_target = "LOX IMVI melanoma"
value = "> 100 µM"

[[record]]
compound = "COc1ccc([C@]23CCN4COC[C@@H]([C@H]42)C2(CC3)OCC(C)(C)CO2)cc1OC"
tested_target = "LOX IMVI melanoma"
value = "> 100 µM"

[[record]]
compound = "COc1ccc2[nH]c(C(=O)N3CC(CCl)c4c3cc(N)c3ccccc43)cc2c1 (stereo not given)"
tested_target = "LOX IMVI melanoma"
value = "0.0223 µM"

[[record]]
compound = "COc1ccc(N=C2C(=Nc3ccc(OC)cc3)N(c3ccc(N(C)C)cc3)C(=S)N2c2ccc(OC)cc2)cc1"
tested_target = "LOX IMVI melanoma"
value = "> 100 µM"


---

# System: MALME-3M melanoma
# PROCEDURE_SUMMARY: NCI tumour cell line growth inhibition, 48 h
Property: TGI; scope: individual molecules
MEASURED_ENDPOINT: TGI (µM)

[[record]]
molecule = "CC(C)C[C@H](NC(=O)CCn1ccc2ncccc2c1=O)B(O)O"
relation_operator = "="
value = 48.9

[[record]]
molecule = "O=C(Nc1nc2ccc([N+](=O)[O-])cc2s1)C(=O)C(C(=O)c1ccncc1)C1OC(=O)c2ccccc21 (stereo not given)"
relation_operator = ">"
value = 100

[[record]]
molecule = "COc1nc2c(nc(N)n2C2OCC(O)C(O)C2O)c(=O)n1C (stereo not given)"
relation_operator = ">"
value = 100

[[record]]
molecule = "CCOC(=O)C(NC(=O)CC)(Nc1ccc(F)c(Cl)c1)C(F)(F)F (stereo not given)"
relation_operator = ">"
value = 100

[[record]]
molecule = "O=C(N/N=C/c1ccc(Cl)cc1Cl)c1ccc2nc(-c3ccc(Cl)cc3)[nH]c2c1"
relation_operator = "="
value = 3.15


---

# Tested on: A549 NSCLC
# PROCEDURE_SUMMARY: NCI tumour cell line growth inhibition, 48 h
MEASURED_ENDPOINT: TGI

[[record]]
compound = "CC(C)(C)OC(=O)N1[C@@H]2Cc3ccc(N)cc3[C@@]1(C)c1ccccc12"
value = "> 100 µM"

[[record]]
compound = "O=C1C2=C(SCCS2)C(=O)c2c(Sc3ccc(Cl)cc3)c(Sc3ccc(Cl)cc3)c(Sc3ccc(Cl)cc3)c(Sc3ccc(Cl)cc3)c21"
value = "> 100 µM"

[[record]]
compound = "O=C(Nc1ccc(Br)cc1)C(=O)C(C(=O)c1ccccc1F)C1OC(=O)c2ccccc21 (stereo not drawn)"
value = "> 100 µM"

[[record]]
compound = "CCOC(=O)C(C(=O)OCC)C(=O)c1ccccc1C(=O)c1ccccc1"
value = "> 100 µM"

[[record]]
compound = "Nc1ccc(C(OC(=O)c2cc3ccccc3c(Cc3c(O)c(C(=O)OC(c4ccc(N)cc4)(c4ccc(N)cc4)c4ccc(N)cc4)cc4ccccc34)c2O)(c2ccc(N)cc2)c2ccc(N)cc2)cc1"
value = "21.7 µM"

[[record]]
compound = "CC(NC(=O)C(=O)N/N=C1\\C[C@@H](c2ccccc2)Nc2ccccc21)c1ccccc1 (stereo partly drawn)"
value = "> 100 µM"

[[record]]
compound = "CN(C)CC1CCC/C(=C\\c2ccc(OC(=O)/C=C/c3ccc(Cl)c(Cl)c3)cc2)C1=O (stereo not drawn)"
value = "24.4 µM"

[[record]]
compound = "C[C@@H](COCCC(=O)N1CCN(c2ncc(C(F)(F)F)cn2)CC1)Nc1cn[nH]c(=O)c1C(F)(F)F"
value = "> 100 µM"


---

# System: PC-3 prostate
# PROCEDURE_SUMMARY: NCI tumour cell line growth inhibition, 48 h
MEASURED_ENDPOINT: TGI

[[record]]
molecule = "CCOC(=O)C(=CN1CCNC1=S)C(=O)OCC"
value = "> 100 µM"

[[record]]
molecule = "COC(=O)[C@H](C)NC(=O)[C@@H](OC)[C@@H]1Cc2cc3cc(OC4CC(OC5CC(O)C(O)C(C)O5)C(O)C(C)O4)c(C)c(O)c3c(O)c2C(=O)[C@H]1OC1CC(OC2CC(OC3CC(C)(O)C(O)C(C)O3)C(O)C(C)O2)C(O)C(C)O1 (stereo not given in full)"
value = "> 50 µM"

[[record]]
molecule = "Nc1nccc2c1ncn2C1OC(CO)C(O)C1O (stereo not given)"
value = "> 100 µM"

[[record]]
molecule = "CCC1(NC(=O)c2cc(F)c(F)c(F)c2F)C(=O)NC(=O)N(C(C)C)C1=O (stereo not given)"
value = "63.6 µM"

[[record]]
molecule = "CCN(CC)CCOC(=O)Cc1cccc2c(=O)cc(-c3ccccc3)oc12"
value = "62.5 µM"

[[record]]
molecule = "OCC(CCc1c[nH]c2ccccc12)c1c[nH]c2ccccc12 (stereo not given)"
value = "32.3 µM"

[[record]]
molecule = "Cc1ccc2nc(-c3ccc(N)c4ccccc34)[nH]c2c1"
value = "22 µM"

[[record]]
molecule = "CCC(=O)/C(=C\\I)c1ccccc1"
value = "9.34 µM"

[[record]]
molecule = "CC(=O)Oc1cc(OC(C)=O)c2c(C)cc(=O)oc2c1"
value = "> 100 µM"

[[record]]
molecule = "N[C@H](CCC(=O)NCP(=O)(O)O)C(=O)O"
value = "> 100 µM"

[[record]]
molecule = "COc1ccc(N=C2C(=Nc3ccc(OC)cc3)N(c3ccc(N(C)C)cc3)C(=S)N2c2ccc(OC)cc2)cc1"
value = "> 100 µM"

[[record]]
molecule = "O=C(CNc1ccc2c(=S)c3ccccc3[nH]c2c1)Nc1ccccc1-c1ccccc1NC(=O)CNc1ccc2c(=S)c3ccccc3[nH]c2c1"
value = "> 49.8 µM"

[[record]]
molecule = "CCCN(CCC)C1CCc2c(ccc3cc[nH]c23)C1 (stereo not given)"
value = "> 100 µM"

[[record]]
molecule = "COc1c(C)c(C/C=C(\\C)CC/C=C(\\C)CC/C=C(\\C)CCC=C(C)C)c(OC)c2ccccc12"
value = "> 100 µM"

[[record]]
molecule = "CCOC(=O)C(=O)CC(=O)C1=C(c2ccccc2OC)CC(c2cccs2)=CC1=O"
value = "> 100 µM"

[[record]]
molecule = "COc1cc2c(cc1OC)[C@@](C)(C(O)C(O)C(C)(C)O)NCC2 (stereo not given in full)"
value = "> 100 µM"

[[record]]
molecule = "CN(C)CC1CCC/C(=C\\c2ccc(OC(=O)/C=C/c3ccc(Cl)c(Cl)c3)cc2)C1=O (stereo not given)"
value = "13.2 µM"

[[record]]
molecule = "CCOC(=O)c1[nH]c2cccc3c2c1CC[C@H](NC(=O)C(F)(F)F)C3=O"
value = "> 100 µM"

[[record]]
molecule = "COc1cc(NC(=O)NCc2ccco2)ccc1-c1ccc(NC(=O)NCc2ccco2)cc1OC"
value = "39.9 µM"

[[record]]
molecule = "COC([C@@H](OC(=O)c1ccccc1)[C@H](OC(=O)c1ccccc1)C(O)COC(=O)c1ccccc1)n1cc(C)c(=O)[nH]c1=O (stereo not given in full)"
value = "> 100 µM"

[[record]]
molecule = "CSc1ccc(SC2c3ccc(C)cc3Oc3nc(N)c(C#N)c(N)c32)cc1 (stereo not given)"
value = "3.22 µM"

[[record]]
molecule = "COc1c2ccsc2c(OC)c2ccsc12"
value = "> 100 µM"

[[record]]
molecule = "COC1=C2C=[N+](C)C3C(=C2C=CC1OC)Cc1cc2c(cc13)OCO2 (stereo not given)"
value = "39.3 µM"

[[record]]
molecule = "Nc1ccc(C(OC(=O)c2cc3ccccc3c(Cc3c(O)c(C(=O)OC(c4ccc(N)cc4)(c4ccc(N)cc4)c4ccc(N)cc4)cc4ccccc34)c2O)(c2ccc(N)cc2)c2ccc(N)cc2)cc1"
value = "20.4 µM"

[[record]]
molecule = "O=C1CS(=O)(=O)C(c2cccc(Oc3ccccc3)c2)N1c1ccccc1 (stereo not given)"
value = "66.8 µM"

[[record]]
molecule = "C=C(CNC(=O)c1ccccc1)c1ccc(C(=O)Nc2ccccc2N)cc1"
value = "> 100 µM"

[[record]]
molecule = "COc1ccc(C2SCC(=O)N2NC(=O)C(C)Oc2ccccc2C)cc1 (stereo not given)"
value = "> 100 µM"

[[record]]
molecule = "CC12CCC(C(=Nc3cc(C(F)(F)F)cc(C(F)(F)F)c3)C1=O)C2(C)C (stereo not given)"
value = "> 100 µM"

[[record]]
molecule = "COc1cccc(C2SC(C)C(=O)N2CCc2cccs2)c1 (stereo not given)"
value = "8.65 µM"

[[record]]
molecule = "Cc1cc(C)c(S(=O)(=O)N(CCc2cccc(Br)c2)Cc2ccc(-c3cccc(S(C)(=O)=O)c3)cc2)c(C)c1"
value = "> 100 µM"

[[record]]
molecule = "COc1cc2c3c(n(CCCBr)c(=O)c2cc1OC)-c1ccc(F)cc1C3=O"
value = "> 100 µM"

[[record]]
molecule = "Fc1ccc2c(c1)C1=C(CO2)C(c2ccc(Cl)cc2)NC(=S)N1 (stereo not given)"
value = "> 100 µM"

[[record]]
molecule = "COP(=O)(O)C(N)Cc1c[nH]c2ccccc12 (stereo not given)"
value = "> 100 µM"

[[record]]
molecule = "CNC(=S)NNc1ncnc2c1ncn2-c1ccc(C)cc1"
value = "> 100 µM"

[[record]]
molecule = "CN(C)CCSCCO"
value = "> 100 µM"

[[record]]
molecule = "O=C(O)CCc1ccc2c(c1)CC1(Cc3ccccc3C1)C2"
value = "> 100 µM"

[[record]]
molecule = "CCCCCN(CCCCC)CC(C)(C)C(O)c1ccc(OC)c2ccccc12 (stereo not given)"
value = "26.4 µM"

[[record]]
molecule = "N#CC[N+]1(Cc2ccccn2)CCCC1"
value = "> 100 µM"

[[record]]
molecule = "COC(=O)c1cccc(OC)c1C#Cc1c(OC)cccc1OC"
value = "> 100 µM"

[[record]]
molecule = "Cc1cc(O)cc(O)c1C(=O)O[C@]1(C)C(=O)C=C2C=C(/C=C/C(=O)O)OC=C2C1=O"
value = "> 100 µM"

